FYI, the data here is from PubChem BioAssay.

System: Sonic hedgehog protein (Shh)
ASSAY EXPLANATION: small-molecule binders of Shh protein, primary screen, biochemical, small-molecule microarray, 635/667 nm fluorescence (AID 1151);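 note: Shh protein binding to compounds spotted on small-molecule microarray slides; score combines spot fluorescence intensity with signal-to-noise across triplicate slides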
CONDITION SET: small-molecule microarray binding, 635 nm fluorescence; higher = more signal
composite z-score for assorted compounds
Could you keep your reply to the number by itself?

# annotated cases, reported composite z-score shown
{"STRUCTURE SMILES": "CCOC(=O)CCN1C(=O)[C@H]2[C@H]3[C@H](O)C=CC(=O)[C@@H]3CC[C@H]2C1=O", "composite z-score": 0.425}
{"STRUCTURE SMILES": "CCN1C(=O)[C@H]2[C@H]3[C@H](O)[C@H](O)CC(=NOCc4ccccc4)[C@@H]3CC[C@H]2C1=O", "composite z-score": 0.531}
{"STRUCTURE SMILES": "CC(=O)OC[C@H]1O[C@@H](ON=C(C)CCN2CCc3nc(-c4ccccc4)c(-c4ccccc4)cc3C2)[C@H](OC(C)=O)[C@@H](OC(C)=O)[C@@H]1OC(C)=O", "composite z-score": 1.12}
{"STRUCTURE SMILES": "Cc1ccc(S(=O)(=O)N[C@@H]2COC(=O)[C@H](C)COC(=O)CC=C[C@H]2C)cc1", "composite z-score": 1.91}

Now let's try a different one.
Challenge: Any idea what its composite z-score is? The compound is COC(=O)c1c(CC[C@@H](CO)NC(=O)N[C@H](Cc2ccccc2)Cn2cc(-c3ccccc3N)nn2)oc(C(C)=O)c1C(=O)OC
Response given: 0.352
